- SYSTEM: CSF1R (human) (UniProt P07333)
- Sequence (P07333 whole entry, looked up): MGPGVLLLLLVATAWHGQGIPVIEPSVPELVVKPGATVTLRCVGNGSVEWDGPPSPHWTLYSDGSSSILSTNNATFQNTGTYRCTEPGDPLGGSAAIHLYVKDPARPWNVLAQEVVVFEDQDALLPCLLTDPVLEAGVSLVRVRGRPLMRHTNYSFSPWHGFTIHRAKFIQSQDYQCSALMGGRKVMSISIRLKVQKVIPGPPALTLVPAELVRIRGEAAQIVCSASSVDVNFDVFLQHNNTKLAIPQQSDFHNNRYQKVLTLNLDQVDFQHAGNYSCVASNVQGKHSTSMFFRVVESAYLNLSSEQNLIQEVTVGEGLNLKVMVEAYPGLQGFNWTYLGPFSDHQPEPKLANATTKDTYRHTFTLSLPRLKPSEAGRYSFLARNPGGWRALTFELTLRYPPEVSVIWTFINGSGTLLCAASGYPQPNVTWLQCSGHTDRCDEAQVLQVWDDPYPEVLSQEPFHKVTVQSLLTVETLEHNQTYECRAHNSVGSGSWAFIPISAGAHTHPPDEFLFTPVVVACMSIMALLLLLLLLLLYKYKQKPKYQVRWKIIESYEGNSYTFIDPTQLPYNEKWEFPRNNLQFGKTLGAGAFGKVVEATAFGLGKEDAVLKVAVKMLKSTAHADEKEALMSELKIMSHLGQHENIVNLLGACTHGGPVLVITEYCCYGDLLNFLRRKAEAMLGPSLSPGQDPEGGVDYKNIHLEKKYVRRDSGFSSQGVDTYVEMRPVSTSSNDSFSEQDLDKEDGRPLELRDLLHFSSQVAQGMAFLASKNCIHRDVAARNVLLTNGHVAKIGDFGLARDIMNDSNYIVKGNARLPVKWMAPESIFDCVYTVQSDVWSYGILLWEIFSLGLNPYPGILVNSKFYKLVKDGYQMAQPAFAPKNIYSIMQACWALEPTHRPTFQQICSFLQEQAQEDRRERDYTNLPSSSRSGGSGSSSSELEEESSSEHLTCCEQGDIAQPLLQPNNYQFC
- PROTOCOL_NOTES: KINOMEscan competition binding
- PROTOCOL_CONDITIONS: compound 10.0 µM
The entries below are paired with their reported kinase still bound, per cent of control.

{"COMPOUND_STRUCTURE": "O=c1cc(N2CCOCC2)oc2c(-c3cccc4c3sc3ccccc34)cccc12", "UNIT_TEXT": "%", "kinase still bound, per cent of control": 100}
{"COMPOUND_STRUCTURE": "O=C(Nc1cccc(Nc2ncc(Br)c(NCCc3cnc[nH]3)n2)c1)N1CCCC1", "UNIT_TEXT": "%", "kinase still bound, per cent of control": 1.4}
{"COMPOUND_STRUCTURE": "COc1cc2ncnc(-n3nc(-c4ccccn4)nc3N)c2cc1OC", "UNIT_TEXT": "%", "kinase still bound, per cent of control": 52}
{"COMPOUND_STRUCTURE": "Cc1n[nH]c2ccc(-c3cncc(OC[C@@H](N)Cc4c[nH]c5ccccc45)c3)cc12", "UNIT_TEXT": "%", "kinase still bound, per cent of control": 100}
{"COMPOUND_STRUCTURE": "COc1ccc(N(C(=O)Oc2c(C)cccc2C)c2ccnc(Nc3ccc(N4CCN(C)CC4)cc3)n2)c(OC)c1", "UNIT_TEXT": "%", "kinase still bound, per cent of control": 0.1}
{"COMPOUND_STRUCTURE": "CCN(CC)CCCCNc1ncc2c(n1)N(C)C(=O)N(c1c(Cl)c(OC)cc(OC)c1Cl)C2", "UNIT_TEXT": "%", "kinase still bound, per cent of control": 0.15}
{"COMPOUND_STRUCTURE": "COc1cc(C(=O)N2CCC(N3CCN(C)CC3)CC2)ccc1Nc1ncc2c(n1)N(C)c1ccccc1C(=O)N2C", "UNIT_TEXT": "%", "kinase still bound, per cent of control": 98}
{"COMPOUND_STRUCTURE": "C=CC(=O)Nc1cc(-n2c(=O)ccc3cnc4ccc(-c5cn[nH]c5)cc4c32)ccc1C", "UNIT_TEXT": "%", "kinase still bound, per cent of control": 90}
{"COMPOUND_STRUCTURE": "C=CC(=O)Nc1ccc(CN(C(=O)Nc2c(Cl)c(OC)cc(OC)c2Cl)c2cc(Nc3ccc(N4CCN(C)CC4)cc3)ncn2)cc1", "UNIT_TEXT": "%", "kinase still bound, per cent of control": 0}
{"COMPOUND_STRUCTURE": "CCN(CC)CCCCNc1ncc2cc(-c3cc(OC)cc(OC)c3)c(NC(=O)NC(C)(C)C)nc2n1", "UNIT_TEXT": "%", "kinase still bound, per cent of control": 6.6}
{"COMPOUND_STRUCTURE": "CNC(=O)c1ccc(Nc2cc(Nc3ccccc3S(=O)(=O)C(C)C)c3cc[nH]c3n2)nc1", "UNIT_TEXT": "%", "kinase still bound, per cent of control": 30}
{"COMPOUND_STRUCTURE": "C[C@@H](Oc1cc(-c2cnn(C3CCNCC3)c2)cnc1N)c1c(Cl)ccc(F)c1Cl", "UNIT_TEXT": "%", "kinase still bound, per cent of control": 0.15}
{"COMPOUND_STRUCTURE": "CN(C)C/C=C/C(=O)Nc1ccc(C(=O)Nc2cccc(Nc3nccc(-c4cccnc4)n3)c2)cc1", "UNIT_TEXT": "%", "kinase still bound, per cent of control": 100}
{"COMPOUND_STRUCTURE": "COc1cc(N2CCN(C)CC2)ccc1Nc1ncc2c(n1)N(C)c1ccccc1C(=O)N2C", "UNIT_TEXT": "%", "kinase still bound, per cent of control": 16}
{"COMPOUND_STRUCTURE": "COCC(=O)NC/C=C/c1ccc2ncnc(Nc3ccc(Oc4ccc(C)nc4)c(C)c3)c2c1", "UNIT_TEXT": "%", "kinase still bound, per cent of control": 100}
{"COMPOUND_STRUCTURE": "CCN1CCN(C(=O)Cc2ccc(Nc3ncc(F)c(Nc4ccc(C(=O)Nc5ccccc5Cl)cc4)n3)cc2)CC1", "UNIT_TEXT": "%", "kinase still bound, per cent of control": 6.5}
{"COMPOUND_STRUCTURE": "CS(=O)(=O)N1CCN(Cc2cc3nc(-c4cccc5[nH]ncc45)nc(N4CCOCC4)c3s2)CC1", "UNIT_TEXT": "%", "kinase still bound, per cent of control": 100}
{"COMPOUND_STRUCTURE": "NC(=O)Nc1cc(-c2cccc(F)c2)sc1C(=O)N[C@@H]1CCCNC1", "UNIT_TEXT": "%", "kinase still bound, per cent of control": 0}
